Data origin: PubChem BioAssay (NCI)

tested on: SK-OV-3 ovarian; assay: NCI-60 one-dose screen, 48 h; conditions: 10 µM unless noted
This is part of a sample that, as a whole, favours compounds with a hit. Of some 83,000 tested, about 20% had one in any assay. The source made the active and inactive calls. How the source made its calls: active means growth percent below 10; inactive means the rest.
Choose the fitting class; nothing outside Yes (active), No (inactive) is accepted.

{"compound": "COc1ccc(N/N=C/c2ccc3c(c2)Sc2ccccc2N3C)cc1", "target": "SK-OV-3 ovarian", "answer-label": "No"}
{"compound": "C=C1CC[C@@H]2[C@](C)(COC(C)=O)[C@H](OC(C)=O)CC[C@@]2(C)[C@@H]1CC(Nc1ccc(S(=O)(=O)Nc2nccc(C)n2)cc1)C1=CCOC1=O (some centres undefined)", "target": "SK-OV-3 ovarian", "answer-label": "No"}
{"compound": "CC(C)(C)n1cc(-c2ccnc(NCCNS(=O)(=O)c3ccc(C(F)(F)F)cc3)c2)c(-c2ccccc2)n1", "target": "SK-OV-3 ovarian", "answer-label": "No"}
{"compound": "COC(=O)CCc1c(/C=C2\\N=C(c3ccc[nH]3)C=C2OC)[nH]c(C)c1C(=O)OCc1ccccc1", "target": "SK-OV-3 ovarian", "answer-label": "No"}
{"compound": "COc1cccc(CNc2nnc(C)c(C)n2)c1O", "target": "SK-OV-3 ovarian", "answer-label": "No"}
{"compound": "COc1cccc2cc(N(C)c3ncnc4ccccc34)ccc12", "target": "SK-OV-3 ovarian", "answer-label": "No"}
{"compound": "CCOC(=O)c1c(C)c2c(n1Cc1ccccc1)CSc1cc(C#N)c(=O)[nH]c1-2", "target": "SK-OV-3 ovarian", "answer-label": "No"}
{"compound": "O=C(OCC(O)(CO)C(=O)NC12CC3CC(CC(C3)C1)C2)c1ccc(Cl)cc1 (centres undefined)", "target": "SK-OV-3 ovarian", "answer-label": "No"}

Proceed to the following item.
What did this assay record as the result for `CN(C)CCOc1ccc(/C(=C(/CCCCCCCCCC[P+](c2ccccc2)(c2ccccc2)c2ccccc2)c2ccccc2)c2ccccc2)cc1` ? Yes

====

Test system: SK-MEL-2 melanoma
Assay: NCI-60 one-dose screen, 48 h (100 = growth as untreated, 0 = no growth, -100 = all killed)
Conditions: 10 µM unless noted
Method: Growth inhibition of the SK-MEL-2 human tumor cell line is measured as a screen for anti-cancer activity. Cells are grown in 96 well plates and exposed to the test compound for 48 hours. Compounds are tested at a single concentration, which is 10^-5 M for most compounds. The reported endpoint is percent growth (GI% or GIPRCNT), where numbers from 0 - 100% represent growth inhibition, and numbers from -100% - 0 represent cell death. For example, a value of 40 represents 60% growth inhibition. […]
This is part of a sample that, as a whole, favours compounds with a hit. Of some 83,000 tested, about 20% had one in any assay. Calls of active or inactive are those of the source. How the source made its calls: active means growth percent below 10; inactive means the rest.
Consider the following compounds and their measured growth readings.

Examples with their reported growth follow.
{"compound": "Cc1c2ccncc2c(C)c2c1c1ccccc1n2CCCCCC(=O)O", "growth": "92.4% (inactive)"}
{"compound": "COc1ccc(-c2ccc(-c3ccc(C(=N)N)o3)o2)cc1", "growth": "54% (inactive)"}

Consider the compound shown here: `O=[N+]([O-])c1ccc(Oc2cccc3c(Oc4ccc([N+](=O)[O-])cc4[N+](=O)[O-])cccc23)c([N+](=O)[O-])c1` What is its recorded growth? 90.4% (inactive)

Consider the compound shown here: `Brc1ccc(-c2nn(-c3ccccc3)cc2-c2nn[nH]n2)s1` What is its recorded growth? 96.2% (inactive)

Consider the compound shown here: `COc1cccc(-c2cc(-c3ccc(Nc4nc(Nc5ccc(Cl)cc5)nc(Nc5ccc(Cl)cc5)n4)cc3)nc(N)c2C#N)c1` What is its recorded growth? 37.7% (inactive)

Consider the compound shown here: O=C(Nc1ccc2c(c1)-c1ccccc1C2)C1CC(=O)N(c2ccc3c(c2)OCO3)C1 (centres undefined) What is its recorded growth? 89.2% [50 µM] (inactive)

Consider the compound shown here: `CCOc1ccc(N2C(=O)CCSC2=S)cc1` What is its recorded growth? 102% (inactive)

Consider the compound shown here: CCOC(=O)CC1C(CNC(=O)NC)OC(n2cnc3c(NC(=O)Nc4ccccc4)ncnc32)C1O[Si](C)(C)C(C)(C)C (centres undefined) What is its recorded growth? 54.3% (inactive)

Consider the compound shown here: `COC(=O)CNC(=O)c1ccc(NC(=O)c2[nH]c(C)c(Cl)c2Cl)c(O[C@H]2CCNC2)c1` What is its recorded growth? 108% (inactive)

====

test system: UO-31 renal; assay: NCI-60 one-dose screen, 48 h; conditions: 10 µM unless noted
This is part of a sample that, as a whole, favours compounds with a hit. Of some 83,000 tested, about 20% had one in any assay. Active and inactive are the calls of the source. How the source made its calls: active means growth percent below 10; inactive means the rest.
Choose the fitting class; nothing outside True (active), False (inactive) is accepted.

{"compound": "COc1cc2c(c(OC)c1OC)CCC(c1cccc(C(=O)Nc3ccc([N+](=O)[O-])cc3)c1)O2 (stereo unspecified)", "answer-label": "False"}

What did this assay record as the result for CNC1=C([N+](=O)[O-])C(c2ccc(OC)cc2)C(C#N)=C(c2ccc[nH]2)O1 (stereo unspecified) ? False

What did this assay record as the result for CC1OC(C(=O)N2CCN(CCO)CC2)CC1COC1CCCCC1 (stereo unspecified) ? False

What did this assay record as the result for `COc1ccccc1NC(=O)n1c(=O)cc(C)c2ccc(O)cc21` ? False

What did this assay record as the result for `C=C(c1ccc(OC)c(/C=C/C(=O)c2cc(OC)c(OC)c(OC)c2)c1)c1cc(OC)c(OC)c(OC)c1` ? True

What did this assay record as the result for CO[C@H]1/C=C/O[C@@]2(C)Oc3c(C)c(O)c4c(O)c(c5c(nc6cc(C)ccn65)c4c3C2=O)NC(=O)/C(C)=C\C=C\[C@H](C)[C@H](O)[C@@H](C)C(O)[C@@H](C)[C@H](OC(C)=O)[C@@H]1C (stereo partly specified) ? False

What did this assay record as the result for COc1ccc(C2=NN(C=O)C(c3ccc(Oc4nc5c(c(=O)n(C)c(=O)n5C)n4C)c(OC)c3)C2)cc1 (stereo unspecified) ? False

What did this assay record as the result for CCCC1Cc2cc(-n3nc(C)c4c3CC(C)(C)CC4=O)cc(NC3CCC(O)CC3)c2C(=O)N1 (stereo unspecified) ? False

What did this assay record as the result for `CC(=O)O[C@H]1C[C@@]2(C)[C@@H](C[C@@H](O)[C@H]3[C@@]4(C)CC[C@H](N5CCCC5)[C@@H](C)[C@@H]4CC[C@@]32C)/C1=C(\CCC=C(C)C)C(=O)O` ? False

What did this assay record as the result for `CN(C)CCOc1nc2c3cc([N+](=O)[O-])ccc3nn2c2ccccc12` ? False

What did this assay record as the result for `C=C(C)[C@@H]1CC[C@]2(C(=O)NC(C)=O)CC[C@]3(C)[C@H](CC[C@@H]4[C@@]5(C)CCCNC(C)(C)[C@@H]5CC[C@]43C)[C@@H]12` ? False

What did this assay record as the result for `O=C(NC1CCCCCC1)c1ccc2c(=O)n3c(nc2c1)CCCCC3` ? False

What did this assay record as the result for `COc1cc(/C=C/c2cc(/C=C/c3ccc(O)c(OC)c3)n(C(=O)Nc3ccc(C)cc3C)n2)ccc1O` ? True

What did this assay record as the result for `COc1cc(OC)cc(C(=O)Nc2cnc(Nc3ccc(N4CCOCC4)nc3)nc2Oc2ccc(C(F)(F)F)cc2)c1` ? False

What did this assay record as the result for `CCCCCCCCOC(=O)c1c(C)[nH]c(/C=C2\N=C(c3ccc[nH]3)C=C2OC)c1C` ? True

What did this assay record as the result for Nc1nc(N)c2c(n1)NC(c1ccc3c(c1)OCO3)CC(c1cccc(Nc3ccncc3)c1)=N2 (stereo unspecified) ? False

====

Tested on: MALME-3M melanoma
Experiment: NCI-60 one-dose screen, 48 h
Conditions: 10 µM unless noted
Description: Cells are grown in 96 well plates and exposed to the test compound for 48 hours. Compounds are tested at a single concentration, which is 10^-5 M for most compounds. The reported endpoint is percent growth (GI% or GIPRCNT), where numbers from 0 - 100% represent growth inhibition, and numbers from -100% - 0 represent cell death. For example, a value of 40 represents 60% growth inhibition. A value of 0 means no net growth occurred over the course of the experiment. […]
This is part of a sample that, as a whole, favours compounds with a hit. Of some 83,000 tested, about 20% had one in any assay. Active and inactive are the calls of the source. The calls were made as follows: active = growth percent below 10; inactive = the rest.
Choose the fitting class; nothing outside Yes = active, No = inactive is accepted.

{"molecule": "C=C(C)[C@@H]1CC[C@]2(C#N)CC[C@]3(C)[C@H](CC[C@@H]4[C@@]5(C)CCCNC(C)(C)[C@@H]5CC[C@]43C)[C@@H]12", "answer-label": "No"}
{"molecule": "CN1CCN(Cc2ccc(NC(=O)c3cncc(C#Cc4cnc(N)c5ccc(C#N)cc45)c3)cc2C(F)(F)F)CC1", "answer-label": "Yes"}

What did this assay record as the result for `Brc1ccc(-c2nn(-c3ccccc3)cc2-c2nn[nH]n2)s1` ? No

What did this assay record as the result for `CCCCCCCCCCCCCC[n+]1ccc2c(C)c3c(c(C)c2c1)c1cc(O)ccc1n3CC` ? Yes

What did this assay record as the result for N#C/C(=C\c1cccc2cnccc12)N1N=NC2C=CC=CC21 (stereo not given) ? No
